Each recorded value in this set is attributed to patent US20240341337A1.

# Assay Text: Antagonist screening for pea protein off-notes on VAS aroma blending device, off-note Ex. C
# Design: key: +++ being most effective; ++ in the middle; + some effect; +/− being in between; − being no effect
# Protocol Conditions: off-note channel 3, 0.01% in MCT, flow 185; antagonist channel conc. as in Table 2 c2
# Procedure: […] Selection and screening of the antagonist molecules was performed using the VAS aroma blending device. […] Each antagonist candidate molecule was then diluted with MCT in a pre-determined concentration and was loaded into a cartridge/channel as shown in Table 2 (#'s 6-20). […]

Compound: C=CCOC(=O)CCC1CCCCC1 [Ally1 Cyclohexyl Proprionate]
Off-note Ex. C masking effect: +++
--
Compound: CCCCCCCCCCCCCCCC(=O)OCC [Ethyl Palmitate]
Off-note Ex. C masking effect: ++
--
Compound: CCOC(=O)CCC(=O)OCC [Diethyl Succinate]
Off-note Ex. C masking effect: +/−
--
Compound: CCOC(=O)C(C)O (stereo not shown) [Ethyl lactate]
Off-note Ex. C masking effect: ++

* * *

# Assay Text: Antagonist screening for pea protein off-notes on VAS aroma blending device, off-note Ex. D
# Parameters: key: +++ being most effective; ++ in the middle; + some effect; +/− being in between; − being no effect
# Protocol Conditions: off-note channel 4, 0.10% in MCT, flow 15; antagonist channel conc. as in Table 2 c2
Measurement Name: Off-note Ex. D masking effect

Compound: CCOC(=O)CCC(=O)OCC [Diethyl Succinate]
Value Reported: ++
//
Compound: CCOC(=O)C(C)O (stereo not shown) [Ethyl lactate]
Value Reported: ++
//
Compound: CCCCCCCCCCCCCCCC(=O)OCC [Ethyl Palmitate]
Value Reported: −
//
Compound: C=CCOC(=O)CCC1CCCCC1 [Ally1 Cyclohexyl Proprionate]
Value Reported: −

* * *

# Assay Text: Antagonist screening for pea protein off-notes on VAS aroma blending device, off-note Ex. C
# Protocol Conditions: off-note channel 3, 0.01% in MCT, flow 185; antagonist channel conc. as in Table 2 c2
Below is a list of entries, each paired with its recorded Off-note Ex. C Flow Rate (antagonist channel) value.
Measurement Name: Off-note Ex. C Flow Rate (antagonist channel)

Compound: CCOC(=O)CCC(=O)OCC [Diethyl Succinate]
Value Reported: 200 mL/min

Compound: C=CCOC(=O)CCC1CCCCC1 [Ally1 Cyclohexyl Proprionate]
Value Reported: 100 mL/min

Compound: CCOC(=O)C(C)O (stereo not shown) [Ethyl lactate]
Value Reported: 200 mL/min

Compound: CCCCCCCCCCCCCCCC(=O)OCC [Ethyl Palmitate]
Value Reported: 35 mL/min
